Data provenance is the CheMixHub drug solubility set.

- METHOD NOTES: xn = mol fraction of the nth substance listed, in the solute-free solvent
- APPLIED CONDITIONS: 328.15 K; x2 = 0.4
ASSAY METRIC: solubility (g/100 g solution)
# answer = number (no unit)

[
  {
    "COMPOUND": "CN1CCN(C(=O)OC2c3nccnc3C(=O)N2c2ccc(Cl)cn2)CC1 (stereo unspecified) + CC#N + O",
    "solubility (g/100 g solution)": 3.23
  }
]

-- ask Output solubility (g/100 g solution) of CN1CCN(C(=O)OC2c3nccnc3C(=O)N2c2ccc(Cl)cn2)CC1 (stereo unspecified) + CC(C)=O + O
-- reply 1.18

-- ask Output solubility (g/100 g solution) of CN1CCN(C(=O)OC2c3nccnc3C(=O)N2c2ccc(Cl)cn2)CC1 (stereo unspecified) + CCO + O
-- reply 1.65

-- ask Output solubility (g/100 g solution) of CCCCN1CCCCC1C(=O)Nc1c(C)cccc1C.Cl.O (stereo unspecified) + CO + O
-- reply 28

-- ask Output solubility (g/100 g solution) of CN1CCN(C(=O)OC2c3nccnc3C(=O)N2c2ccc(Cl)cn2)CC1 (stereo unspecified) + C1CCOC1 + O
-- reply 2.59

-- ask Output solubility (g/100 g solution) of CCCCN1CCCCC1C(=O)Nc1c(C)cccc1C.Cl.O (stereo unspecified) + CCO + O
-- reply 18.3

====

- METHOD NOTES: xn = mol fraction of the nth substance listed, in the solute-free solvent
- APPLIED CONDITIONS: 288.15 K; x2 = 0.7
ASSAY METRIC: solubility (g/100 g solution)

[
  {
    "COMPOUND": "CCOC(=O)C1=CC2(CC)CCCN3CCc4c(n1c1ccccc41)C32 (stereo not given) + CCO + O",
    "solubility (g/100 g solution)": 0.418
  },
  {
    "COMPOUND": "O=c1ccc2ccccc2o1 + CO + O",
    "solubility (g/100 g solution)": 7.8
  },
  {
    "COMPOUND": "CN1CCN(C(=O)OC2c3nccnc3C(=O)N2c2ccc(Cl)cn2)CC1 (stereo not given) + CC(C)=O + O",
    "solubility (g/100 g solution)": 1.17
  },
  {
    "COMPOUND": "CC1(C)SC2C(NC(=O)C(NC(=O)N3CCNC3=O)c3ccccc3)C(=O)N2C1C(=O)O (stereo not given) + CO + CC(C)O",
    "solubility (g/100 g solution)": 0.295
  }
]

Now for another entry.
-- ask Output solubility (g/100 g solution) of CN1CCN(C(=O)OC2c3nccnc3C(=O)N2c2ccc(Cl)cn2)CC1 (stereo not given) + CC#N + O
-- reply 3.27

====

# solubility (g/100 g solution) values compiled below
- METHOD NOTES: xn = mol fraction of the nth substance listed, in the solute-free solvent
- APPLIED CONDITIONS: 293.15 K; x2 = 0.1
# answer = number (no unit)

[
  {
    "COMPOUND": "CCCCN1CCCCC1C(=O)Nc1c(C)cccc1C.Cl.O (stereo not given) + CO + O",
    "ASSAY RESULT": 2.92
  },
  {
    "COMPOUND": "O=c1ccc2ccccc2o1 + CC(C)=O + O",
    "ASSAY RESULT": 1.8
  },
  {
    "COMPOUND": "CCCCN1CCCCC1C(=O)Nc1c(C)cccc1C.Cl.O (stereo not given) + CCO + O",
    "ASSAY RESULT": 3.04
  }
]

-- ask Output solubility (g/100 g solution) of CC1(C)SC2C(NC(=O)C(NC(=O)N3CCNC3=O)c3ccccc3)C(=O)N2C1C(=O)O (stereo not given) + CO + CC(C)O
-- reply 0.163

-- ask Output solubility (g/100 g solution) of O=c1ccc2ccccc2o1 + CO + O
-- reply 0.171

====

- METHOD NOTES: xn = mol fraction of the nth substance listed, in the solute-free solvent
- APPLIED CONDITIONS: 283.15 K; x2 = 0.5
ASSAY METRIC: solubility (g/100 g solution)
# answer = number (no unit)

Here are 3 compounds together with their reported answers.
[
  {
    "COMPOUND": "CCOC(=O)C1=CC2(CC)CCCN3CCc4c(n1c1ccccc41)C32 (centres undefined) + CCO + O",
    "solubility (g/100 g solution)": 0.184
  },
  {
    "COMPOUND": "O=c1ccc2ccccc2o1 + CO + O",
    "solubility (g/100 g solution)": 1.96
  },
  {
    "COMPOUND": "CC1(C)SC2C(NC(=O)C(NC(=O)N3CCNC3=O)c3ccccc3)C(=O)N2C1C(=O)O (centres undefined) + CCO + CC(C)O",
    "solubility (g/100 g solution)": 0.182
  }
]

Now for another entry.
-- ask Output solubility (g/100 g solution) of O=c1ccc2ccccc2o1 + CC(C)=O + O
-- reply 25.5

====

- METHOD NOTES: xn = mol fraction of the nth substance listed, in the solute-free solvent
- APPLIED CONDITIONS: 298.15 K; x2 = 0.3
ASSAY METRIC: solubility (g/100 g solution)
# answer = number (no unit)

Here are 3 molecules together with their reported answers.
[
  {
    "MOLECULE": "CN1CCN(C(=O)OC2c3nccnc3C(=O)N2c2ccc(Cl)cn2)CC1 (stereo not given) + CC#N + O",
    "ASSAY METRIC": "solubility (g/100 g solution)",
    "ASSAY RESULT": 0.785
  },
  {
    "MOLECULE": "CN1CCN(C(=O)OC2c3nccnc3C(=O)N2c2ccc(Cl)cn2)CC1 (stereo not given) + C1CCOC1 + O",
    "ASSAY METRIC": "solubility (g/100 g solution)",
    "ASSAY RESULT": 0.626
  },
  {
    "MOLECULE": "CCCCN1CCCCC1C(=O)Nc1c(C)cccc1C.Cl.O (stereo not given) + CO + O",
    "ASSAY METRIC": "solubility (g/100 g solution)",
    "ASSAY RESULT": 4.29
  }
]

-- ask Output solubility (g/100 g solution) of CN1CCN(C(=O)OC2c3nccnc3C(=O)N2c2ccc(Cl)cn2)CC1 (stereo not given) + CC(C)=O + O
-- reply 0.259

-- ask Output solubility (g/100 g solution) of O=c1ccc2ccccc2o1 + CC(C)=O + O
-- reply 29.6

-- ask Output solubility (g/100 g solution) of O=c1ccc2ccccc2o1 + CO + O
-- reply 2.58

====

- METHOD NOTES: xn = mol fraction of the nth substance listed, in the solute-free solvent
- APPLIED CONDITIONS: 283.15 K; x2 = 0.2
Each entry gets FALSE if its solubility (g/100 g solution) stays under 0.04, and TRUE if its solubility (g/100 g solution) is 0.04 or above.

Consider the worked cases shown below.
[
  {
    "MOLECULE": "O=C(CC(=O)c1ccccc1)c1ccccc1 + CC(C)O + O",
    "CLASS": "TRUE"
  },
  {
    "MOLECULE": "CC1(C)SC2C(NC(=O)C(NC(=O)N3CCNC3=O)c3ccccc3)C(=O)N2C1C(=O)O (configuration not stated) + CCO + CC(C)O",
    "CLASS": "TRUE"
  },
  {
    "MOLECULE": "O=c1ccc2ccccc2o1 + CC(C)=O + O",
    "CLASS": "TRUE"
  },
  {
    "MOLECULE": "O=c1ccc2ccccc2o1 + CO + O",
    "CLASS": "TRUE"
  },
  {
    "MOLECULE": "CCOC(=O)C1=CC2(CC)CCCN3CCc4c(n1c1ccccc41)C32 (configuration not stated) + CCO + O",
    "CLASS": "FALSE"
  }
]

Lab note: next molecule to report on.
-- ask Quick check: does O=C(CC(=O)c1ccccc1)c1ccccc1 + CO + O have solubility (g/100 g solution) greater than or equal to 0.04?
-- reply FALSE

====

- METHOD NOTES: xn = mol fraction of the nth substance listed, in the solute-free solvent
- APPLIED CONDITIONS: 303.15 K; x2 = 0.03225
ASSAY METRIC: solubility (g/100 g solution)
# answer = number (no unit)

[
  {
    "COMPOUND": "COC(=O)C1=C(C)NC(C)=C(C(=O)OCC(C)C)C1c1ccccc1[N+](=O)[O-] (centres undefined) + CCCO + O",
    "ASSAY RESULT": 0.422
  },
  {
    "COMPOUND": "CC(=O)Nc1ccc(OC(=O)c2ccccc2OC(C)=O)cc1 + CC(C)O + O",
    "ASSAY RESULT": 0.0161
  },
  {
    "COMPOUND": "CS(=O)(=O)c1ccc(C(O)C(CF)NC(=O)C(Cl)Cl)cc1 (centres undefined) + CC(C)O + O",
    "ASSAY RESULT": 0.32
  }
]

-- ask Output solubility (g/100 g solution) of O=[N+]([O-])c1cc[nH]n1 + CCCO + O
-- reply 0.783
